meta.source: patent US20240246964A1

Below, each of the compounds is paired with its reported pEC50 value.
target: human PD-L1 (Homo sapiens (Human), UniProt Q9NZQ7); assay: T cell activation luciferase reporter cell culture system (T Cell Activation Assay); assay type: cell-based; conditions: luciferase reporter assay; PD-L1 aAPC/CHO-K1 cells with PD-1 effector Jurkat T cells
Sequence (Q9NZQ7 19-290): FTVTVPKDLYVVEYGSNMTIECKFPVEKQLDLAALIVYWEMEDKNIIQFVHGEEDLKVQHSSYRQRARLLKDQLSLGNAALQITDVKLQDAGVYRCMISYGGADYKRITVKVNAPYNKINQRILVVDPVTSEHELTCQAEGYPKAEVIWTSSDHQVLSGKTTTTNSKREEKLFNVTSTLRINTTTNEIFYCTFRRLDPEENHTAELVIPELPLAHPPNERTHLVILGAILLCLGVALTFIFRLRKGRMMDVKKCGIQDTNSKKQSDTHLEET
pEC50: −log10 of the molar value.
reported.metric: pEC50

compound | system.tested | reported.metric | result.operator | test.result
COc1nc(-c2ccnc(-c3cccc(NC(=O)c4cn(C)c(=O)n(C)c4=O)c3Cl)c2Cl)ccc1CN1CC2(CNC(=O)C2)C1 [Compound 719] | human PD-L1 (Homo sapiens (Human), UniProt Q9NZQ7) | pEC50 | = | 6.38
COc1nc(-c2cccc(-c3ccnc(-c4ccc5c(CN(C)CCO)cn(C)c5c4)c3Cl)c2Cl)ccc1CNC[C@@H]1CCC(=O)N1 [Compound 39] | human PD-L1 (Homo sapiens (Human), UniProt Q9NZQ7) | pEC50 | = | 7.21
COc1cc(-c2nccc(-c3cccc(-c4ccc5c(CN(C)C6CCN(C(C)=O)CC6)cn(C)c5n4)c3Cl)c2Cl)ccc1CNC1CCN(C(C)=O)CC1 [Example 264] | human PD-L1 (Homo sapiens (Human), UniProt Q9NZQ7) | pEC50 | = | 7.32
CNCc1ccc(-c2cccc(-c3ccnc(-c4cc(F)c(CNC)c(OC)c4)c3Cl)c2Cl)nc1OC [Example 286] | human PD-L1 (Homo sapiens (Human), UniProt Q9NZQ7) | pEC50 | = | 7.81
COc1nc(-c2cccc(-c3ccnc(-c4ccc5c(CN6CC7(C6)CN(C(C)=O)C7)nn(C)c5c4)c3Cl)c2Cl)ccc1CNC[C@@H]1CCC(=O)N1 [Example 308] | human PD-L1 (Homo sapiens (Human), UniProt Q9NZQ7) | pEC50 | = | 7.62
COc1cc(-c2nccc(-c3cccc(-c4ccc(CNC56CC(CO)(C5)C6)c(OC)n4)c3Cl)c2Cl)ccc1CNC12CC(CO)(C1)C2 [Example 591] | human PD-L1 (Homo sapiens (Human), UniProt Q9NZQ7) | pEC50 | = | 6.33
COc1cc(-c2cncc(-c3cccc(-c4ccc(CNC5CCN(C(C)=O)CC5)c(OC)n4)c3Cl)c2Cl)ccc1CNC1CCN(C(C)=O)CC1 [Compound 641] | human PD-L1 (Homo sapiens (Human), UniProt Q9NZQ7) | pEC50 | = | 6.97
COc1cc(-c2nccc(-c3cccc(-c4ccc(CNCCN5CCCC5=O)c(OC)n4)c3Cl)c2Cl)ccc1CNCCN1CCCC1=O [Example 303] | human PD-L1 (Homo sapiens (Human), UniProt Q9NZQ7) | pEC50 | = | 7.51
CNCc1ccc(-c2nccc(-c3cccc(-c4ccc(CNC)c(OC)n4)c3C)c2C)cc1OC [Example 362] | human PD-L1 (Homo sapiens (Human), UniProt Q9NZQ7) | pEC50 | = | 6.58
COc1cc(-c2nccc(-c3cccc(-c4ccc(CNC[C@@H]5CCC(=O)N5)c(OC)n4)c3Cl)c2Cl)cc2c1CCN(C[C@H](C)O)C2 [Cmpd 44] | human PD-L1 (Homo sapiens (Human), UniProt Q9NZQ7) | pEC50 | = | 7.27
COc1cc(-c2nccc(-c3cccc(-c4ccc(CNC5CC6(COC6)C5)c(OC)n4)c3Cl)c2Cl)cnc1CNC1CC2(COC2)C1 (stereo not drawn) [Compound 429] | human PD-L1 (Homo sapiens (Human), UniProt Q9NZQ7) | pEC50 | = | 7.15
COc1cc(-c2nccc(-c3cccc(-c4ccc5c(CNC6CCN(C(C)=O)CC6)cn(C)c5n4)c3Cl)c2Cl)ccc1CN1CC2(CNC(=O)C2)C1 [Compound 579] | human PD-L1 (Homo sapiens (Human), UniProt Q9NZQ7) | pEC50 | = | 6.99
COc1cc(-c2nccc(-c3cccc(-c4ccc(CNC5CCN(C(C)=O)CC5)c(OC)n4)c3Cl)c2Cl)ccc1CN[C@H](CO)CC(=O)O [Example 342] | human PD-L1 (Homo sapiens (Human), UniProt Q9NZQ7) | pEC50 | = | 6.47
COc1nc(-c2cccc(-c3ccnc(-c4cc(OC)c5nc(CN6CC7(CCC(=O)N7)C6)cn5c4)c3Cl)c2Cl)ccc1CNC[C@@H]1CCC(=O)N1 [Example 320] | human PD-L1 (Homo sapiens (Human), UniProt Q9NZQ7) | pEC50 | = | 7.29
COc1cc(-c2nccc(-c3cccc(-c4ccc5c(OC)c(CNC[C@@H]6CCC(=O)N6)cc(Cl)c5n4)c3Cl)c2Cl)cc(F)c1CNC[C@@H]1CCC(=O)N1 [Example 236] | human PD-L1 (Homo sapiens (Human), UniProt Q9NZQ7) | pEC50 | = | 7.27
COc1cc(-c2nccc(-c3cccc(-c4ccc(CNC[C@@H]5CCC(=O)N5)c(OC)n4)c3Cl)c2Cl)cc(C)c1CN(C)C[C@H](C)O [Compound 118] | human PD-L1 (Homo sapiens (Human), UniProt Q9NZQ7) | pEC50 | = | 7.36
CNCc1ccc(-c2cccc(-c3ccnc(-c4ccc5c(CNC)cn(C)c5c4)c3Cl)c2Cl)nc1OC [Example 276] | human PD-L1 (Homo sapiens (Human), UniProt Q9NZQ7) | pEC50 | ≤ | 5.00
COc1cc(-c2nccc(-c3cccc(-c4ccc(CN5CC(C(C)(C)O)C5)c(OC)n4)c3Cl)c2Cl)ccc1CN1CC(C(C)(C)O)C1 [Example 471] | human PD-L1 (Homo sapiens (Human), UniProt Q9NZQ7) | pEC50 | = | 6.95
COc1cc(-c2nccc(-c3cccc(-c4ccc5c(CNC6CCN(C(C)=O)CC6)cn(C)c5n4)c3Cl)c2Cl)ccc1CNCCO [Compound 560] | human PD-L1 (Homo sapiens (Human), UniProt Q9NZQ7) | pEC50 | = | 7.24
COc1cc(-c2nccc(-c3cccc(-c4ccc(CN5CC6(C5)CN(C(=O)CO)C6)c(OC)n4)c3Cl)c2Cl)ccc1CN1CC2(C1)CN(C(=O)CO)C2 [Example 667] | human PD-L1 (Homo sapiens (Human), UniProt Q9NZQ7) | pEC50 | = | 7.18
COc1cc(-c2nccc(-c3cccc(-c4ccc(CN5CC6(CCN(C(C)=O)CC6)C5)c(OC)n4)c3Cl)c2Cl)ccc1CN1CC2(CCN(C(C)=O)CC2)C1 [Example 485] | human PD-L1 (Homo sapiens (Human), UniProt Q9NZQ7) | pEC50 | = | 6.67
COc1nc(-c2cccc(-c3ccnc(-c4cc(OC)c5nc(CNCC(F)F)cn5c4)c3Cl)c2Cl)ccc1CNC1CCN(C(C)=O)CC1 [Example 478] | human PD-L1 (Homo sapiens (Human), UniProt Q9NZQ7) | pEC50 | ≤ | 5.00
COc1cc(-c2nccc(-c3cccc(-c4ccc(CNC[C@@H]5CCC(=O)N5)c(OC)n4)c3Cl)c2Cl)cnc1CNC[C@@H]1CCC(=O)N1 [Compound 23] | human PD-L1 (Homo sapiens (Human), UniProt Q9NZQ7) | pEC50 | = | 7.44
COc1cc(-c2ncnc(-c3cccc(-c4ccc(CNC5CCN(C(C)=O)CC5)c(OC)n4)c3Cl)c2Cl)ccc1CNC1CCN(C(C)=O)CC1 [Example 540] | human PD-L1 (Homo sapiens (Human), UniProt Q9NZQ7) | pEC50 | = | 7.06
